assay: thallium flux activation in parental CHO cells, counter-screen for KCNQ1 potentiator project (AID 493006); conditions: parental CHO-K1 cells, FluxOR thallium flux, at 10 µM;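 as to activation: fluorescence ratio of max minus min over baseline after K+ and Tl+ depolarization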
Activity calls are given as the source filed them.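 The calls were made as follows: active = duplicate-averaged activation above buffer control mean plus 5 SD of those controls; inactive = the rest.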
Log the outcome using a class from active, inactive

Below, 5 compounds whose answers are already recorded.
> print(dat)
                                   compound  discrete.label
1                Oc1ccc(CN2CCCCC2)c2cccnc12          active
2  CN(C)c1oc(-c2ccc(OCc3ccc(Cl)cc3)cc2)nc1C#N        inactive
3  CSc1ccccc1C(=O)NC1CCCc2ccccc21 (stereo not given)        inactive
4  CCCOc1ccc(C(=O)NC(=S)NNC(=O)c2c(-c3ccccc3)noc2C)cc1        inactive
5       COc1ccccc1C(=O)OCC(=O)Nc1ccc(Cl)cn1        inactive

query: How was Cc1sc(NC(=O)c2ccccc2)c(C(c2ccc(Cl)cc2)N2CCN(CCO)CC2)c1C (stereo not given) classified in this test?
result: inactive

query: How was `COc1ccc(C(=O)Nc2ccnn2C2CCN(Cc3ccncc3)CC2)cc1` classified in this test?
result: inactive

query: How was `c1ccc(-n2cnc3cc(NCc4cccs4)ccc32)cc1` classified in this test?
result: inactive

query: How was `O=C(Nn1c(Cc2cccs2)nc2ccccc2c1=O)c1cccs1` classified in this test?
result: inactive

query: How was `COc1cc(NS(=O)(=O)c2ccc(NC(=S)NC(=O)c3sc4cc(F)ccc4c3Cl)cc2)nc(OC)n1` classified in this test?
result: active

query: How was `Cc1ccc(OCC(=O)NNC(=S)NC(=O)c2cccs2)c(C)c1` classified in this test?
result: active

query: How was `CC(C)CCn1c(=O)c2ccccc2n2c(=S)[nH]nc12` classified in this test?
result: inactive

query: How was `O=C(CSc1nc(=O)n2ccccc2n1)NCc1ccccc1` classified in this test?
result: inactive

query: How was `O=C(NC(=S)Nc1ccccc1N1CCCC1)c1cccc(F)c1` classified in this test?
result: inactive

query: How was `Cc1cc(Cl)c(S(=O)(=O)Nc2ccc3c(c2)OCO3)cc1OCC(N)=O` classified in this test?
result: inactive

query: How was `O=C(NNc1cc(N2CCOCC2)nc(N2CCOCC2)n1)C12CC3CC(CC(C3)C1)C2` classified in this test?
result: inactive

query: How was `N=C1S/C(=C\c2ccc(-c3cccc(Cl)c3)o2)C(=O)N1c1nccs1` classified in this test?
result: inactive

query: How was Cc1cc(NC(=O)CSCC(=O)OC(C)C(=O)N(C)Cc2ccccc2)no1 (stereo not given) classified in this test?
result: inactive

query: How was `O=C(CNS(=O)(=O)c1ccc([N+](=O)[O-])cc1)N/N=C\c1ccc(O)cc1` classified in this test?
result: inactive

query: How was Oc1c(Cl)cc(Cl)cc1/C=N/NC(=S)NC1CC2C=CC1C2 (stereo not given) classified in this test?
result: inactive

query: How was `Cc1[nH]nc(SCC(=O)N2CCCCC2)c1[N+](=O)[O-]` classified in this test?
result: inactive

query: How was `OCCNCc1cc(Br)ccc1OCc1ccccc1Cl` classified in this test?
result: inactive

query: How was `O=C(c1ccc(COc2c(F)c(F)cc(F)c2F)o1)N1CCN(c2ccc(Cl)cc2)CC1` classified in this test?
result: inactive

query: How was `O=C(Nc1ccc(N2CCN(c3ccc(O)cc3)CC2)cc1)Oc1ccccc1` classified in this test?
result: inactive

query: How was `Cc1ccccc1C(=O)Nc1nc(=S)ss1` classified in this test?
result: active

query: How was `O=C(CSc1ncnc2c1cnn2-c1ccc(F)cc1)NC1CCCC1` classified in this test?
result: inactive
